Form field: RP-LC retention time (one value per entry).
- Experiment: gradient 5% acetonitrile 3 min, to 50% in 2 min, to 85% in 15 min, held 3 min, 100 µL/min
- Experimental Parameters: column: Zorbax Extend-C18 2.1 x 50 mm; eluents: water / acetonitrile, 0.1% formic acid

Compound | RP-LC retention time / s
Cn1nc(C(=O)N2CCCCC2)c2c1CCN(C(=O)CCC(=O)NCCCN1CCCC1)C2 | 579
Cc1ccc(Nc2c(C(=O)N3CCOCC3)cnc3nc(C)ccc23)cc1 | 598
O=C(C1CC1)N1CCCn2nc(-c3ccccc3)cc2C1 | 739
COc1ccc(CNc2nc(-c3ccccc3)nnc2C)cc1 | 683
Cc1ccc(NC(=O)N2CCc3[nH]cnc3C2c2ccncc2)cc1Cl (stereo not given) | 585
COc1ccc(-c2noc(C3CCCN3C(=O)Nc3cccc(C)c3)n2)cc1 (stereo not given) | 830
Cn1nc(C(=O)N2CCCC(C(=O)NC3CC3)C2)c2c1CCN(C(=O)c1ccco1)C2 (stereo not given) | 594
O=C(CSc1ncnc2c1cnn2-c1ccccc1)Nc1ccc(OC(F)(F)F)cc1 | 1160
CCOC(=O)c1sc(N2CCN(c3ccccc3)CC2)nc1N | 931
CCOc1ccccc1NC(=O)Nc1nnc(Cc2ccccc2)o1 | 845

* * *

- Experiment: gradient 5% acetonitrile 3 min, to 50% in 2 min, to 85% in 15 min, held 3 min, 100 µL/min
- Experimental Parameters: column: Zorbax Extend-C18 2.1 x 50 mm; eluents: water / acetonitrile, 0.1% formic acid
Form field: RP-LC retention time (one value per entry).

Compound | RP-LC retention time / s
O=C(C1CCC1)N1[C@H]2CC[C@@H]1c1cnc(-c3ccccc3)nc1C2 | 876
CC(C)NC(=O)CN1C(=O)COc2ccc(C(=O)N3CCCCCC3)cc21 | 680
COc1ccc2c(c1)C1(CCN(C(=O)c3ccccc3OC)C1)C(=O)N2C (centres undefined) | 725
Fc1ccccc1CN1CCc2nc(N3CCN(c4ccccc4F)CC3)ncc2C1 | 771

* * *

- Experiment: gradient 5% acetonitrile 3 min, to 50% in 2 min, to 85% in 15 min, held 3 min, 100 µL/min
- Experimental Parameters: column: Zorbax Extend-C18 2.1 x 50 mm; eluents: water / acetonitrile, 0.1% formic acid
Catalogue of RP-LC retention time readings, one per entry.

Compound | RP-LC retention time (s)
CCCN(Cc1ccccc1)Cc1cc(=O)n2cc(Cl)ccc2n1 | 649
O=C(Nc1c(F)cccc1F)N1CCc2[nH]cnc2C1c1ccccn1 (stereo not given) | 582
Cc1noc(-c2ccc(OC3CN(C(=O)NC4CCCCC4)C3)cc2)n1 | 846
CCOC(=O)N1CCN(C(=O)Cn2c(-c3ccccn3)nc3ccccc32)CC1 | 643
OC(c1ccccc1)(c1ccccc1)C1CN2CCC1CC2 (stereo not given) | 733
